Test system: Nanoluciferase (engineered Oplophorus gracilirostris luciferase)
Experiment: Primary Nanoluciferase (NLuc) qHTS assay for identification of artifact compounds. (AID 1845222);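 further: NLuc secreted into diluted conditioned medium of S16 cells; 0% = DMSO and -100% = no enzyme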
Settings: NLuc-conditioned medium, Nano-Glo luminescence, 5 min; series mostly up to 54.1 µM
Calls of active or inactive are those of the source. The call rests on the fitted dose curve; in most records, active means well fitted inhibition curve with a large enough effect; inconclusive means small, poorly fitted or top-dose-only effect; inactive means flat fitted curve, though single readings scatter. Where a SMILES comes first, the peptide text is derived from it. [ ]: non-standard residue; d: D form. ξ: configuration not given here. ξPhe(βξ-Me) = CC(c1ccccc1)C(N)C(=O)O; GABA = NCCCC(=O)O
property_name: activity, negative = inhibition

Observe how each entry below is paired with its result.
molecule | activity, negative = inhibition
CC(C)CC1NC(=O)C2CC3(O)c4ccccc4NC3N2C1=O (stereo not given) | inactive
C=CC1(C)C=C2C(=O)OC(=O)C3=C(CCCC3(C)C)C2(O)CC1 (stereo not given) | inactive
C[C@@H]1CC[C@]2(C(=O)O[C@@H]3O[C@H](CO)[C@@H](O)[C@H](O)[C@H]3O)CC[C@]3(C)C(=CCC4[C@@]5(C)C[C@@H](O)[C@H](O)[C@@](C)(C(=O)O[C@H]6[C@H](O)C[C@@]7(C)C(CC[C@]8(C)C7CC=C7[C@H]9[C@](C(=O)O[C@@H]%10O[C@H](CO)[C@@H](O)[C@H](O)[C@H]%10O)(CC[C@@H](C)[C@@]9(C)O)CC[C@]78C)[C@@]6(CO)C(=O)O)C5CC[C@]43C)[C@@H]2[C@]1(C)O (stereo not given in full) | -2.05% [at 11.6 µM] (inactive)
CO/N=C(/C(=O)N[C@@H]1C(=O)N2C(C(=O)O)=C(Cn3ccc(=N)n3CCO)CS[C@H]12)c1csc(N)n1 | inactive

# evaluate next
What value of activity, negative = inhibition has been recorded for this entry: CC1NC(=O)CCCNC(=O)C(Cc2c[nH]c3ccccc23)NC(=O)C(C)NC(=O)C(C(C)C)NC(=O)C(C(C)c2ccccc2)NC(=O)C(C(C)C)NC1=O (stereo not drawn) (cyclo([GABA]AV[ξPhe(βξ-Me)]VAW); configuration not given here)
inactive
